# TEST: Cmax in Sprague-Dawley rat at 3 mg/kg, po and measured upto 24 hrs by LC-MS/MS analysis
# Assay type: ADME, organism-based
# EXPERIMENTAL_CONDITIONS: in vivo
ASSAY_READOUT: Cmax (nM)

>  <COMPOUND>
COc1ccc2nc3c(nc2c1)O[C@@H]1CC2C(=O)N[C@]4(C(=O)NS(=O)(=O)C5(C)CC5)C[C@@H]4/C=C/CCCCC[C@H](NC(=O)O[C@@H]4CCC[C@H]4CCCCC3)C(=O)N2C1 (stereo partly drawn)

>  <RESULT_NUMBER>
70

$$$$
>  <COMPOUND>
C=C[C@@H]1C[C@]1(NC(=O)[C@@H]1C[C@@H]2CN1C(=O)[C@H](C1CCCC1)NC(=O)O[C@@H]1CCC[C@H]1CCCCCn1c(nc3cc(OC)ccc3c1=O)O2)C(=O)NS(=O)(=O)C1(C)CC1 [MK-2748]

>  <RESULT_NUMBER>
490

$$$$
>  <COMPOUND>
C=C[C@@H]1C[C@]1(NC(=O)[C@@H]1C[C@@H](Oc2cc(-c3csc(NC(=O)C(C)C)n3)nc3c(Br)c(OC)ccc23)CN1C(=O)[C@@H](NC(=O)OC1CCCC1)C(C)(C)C)C(=O)O

>  <RESULT_NUMBER>
400

$$$$

----------
clearance listing for selected compounds.
# TEST: Clearance in Beagle dog plasma at 0.5 mg/kg, iv and measured upto 24 hrs by LC-MS/MS analysis
# Format: ADME, organism-based, Canis lupus familiaris

>  <COMPOUND>
COc1ccc2nc3c(nc2c1)O[C@@H]1CC2C(=O)N[C@]4(C(=O)NS(=O)(=O)C5(C)CC5)C[C@@H]4/C=C/CCCCC[C@H](NC(=O)O[C@@H]4CCC[C@H]4CCCCC3)C(=O)N2C1 (some centres not stated)

>  <UNIT_DESCRIPTOR>
mL/min/kg

>  <clearance>
4.4

$$$$
>  <COMPOUND>
C=C[C@@H]1C[C@]1(NC(=O)[C@@H]1C[C@@H]2CN1C(=O)[C@H](C1CCCC1)NC(=O)O[C@@H]1CCC[C@H]1CCCCCn1c(nc3cc(OC)ccc3c1=O)O2)C(=O)NS(=O)(=O)C1(C)CC1

>  <UNIT_DESCRIPTOR>
mL/min/kg

>  <clearance>
1

$$$$

----------
# TEST: AUC in Sprague-Dawley rat at 2 mg/kg, po
# Type: ADME, organism-based
# EXPERIMENTAL_CONDITIONS: in vivo

>  <STRUCTURE_NOTATION>
Cc1cnc(C(=O)N[C@H]2CCCCC/C=C\[C@@H]3C[C@@]3(C(=O)NS(=O)(=O)C3CC3)NC(=O)[C@@H]3C[C@@H](Oc4nc5ccccc5c5ccccc45)CN3C2=O)cn1

>  <AUC (µM·h)>
19

$$$$
>  <STRUCTURE_NOTATION>
CCC[C@H](NC(=O)[C@@H]1[C@H]2CCC[C@H]2CN1C(=O)[C@@H](NC(=O)[C@@H](NC(=O)c1cnccn1)C1CCCCC1)C(C)(C)C)C(=O)C(=O)NC1CC1

>  <AUC (µM·h)>
3.34

$$$$
>  <STRUCTURE_NOTATION>
CC(C)(C)[C@@H]1NC(=O)O[C@@H]2CCC[C@H]2OC/C=C/C(F)(F)c2nc3ccccc3nc2O[C@@H]2C[C@@H](C(=O)N[C@]3(C(=O)NS(=O)(=O)C4(C)CC4)C[C@H]3C(F)F)N(C2)C1=O

>  <AUC (µM·h)>
22

$$$$

----------
# System: SARS-CoV-2
# TEST: Antiviral activity against SARS-CoV-2 infected in African green monkey Vero cells assessed as reduction in viral replication measured after 72 hrs by qRT-PCR analysis
# Type: functional, organism-based
# EXPERIMENTAL_CONDITIONS: Severe acute respiratory syndrome coronavirus 2, Vero
ASSAY_READOUT: EC50 (nM)

>  <STRUCTURE_NOTATION>
CC(C)Oc1ccc(-c2nc(O[C@@H]3C[C@H]4C(=O)N[C@]5(C(=O)NS(=O)(=O)C6(C)CC6)C[C@H]5/C=C\CCCCC[C@H](NC(=O)OC5CCCC5)C(=O)N4C3)c3oc4ccccc4c3n2)cc1

>  <RESULT_NUMBER>
1.6

$$$$

----------
# TEST: Half life in Cynomolgus monkey at 1.0 mg/kg,iv or 1.25 mg/kg, po
# Format: ADME, organism-based, Macaca fascicularis
# EXPERIMENTAL_CONDITIONS: in vivo
ASSAY_READOUT: half-life (h)

>  <STRUCTURE_NOTATION>
C=C[C@@H]1C[C@]1(NC(=O)[C@@H]1C[C@@H](Oc2cc(-c3ccccc3)nc3cc(OC)ccc23)CN1C(=O)[C@@H](CC(=O)N1CCCCC1)C(C)(C)C)C(=O)NS(=O)(=O)C1CC1

>  <UNIT_DESCRIPTOR>
h

>  <RESULT_NUMBER>
10.4

$$$$

----------
# TEST: AUC in Sprague-Dawley rat plasma […] at 10 mg/kg, po administered via gavage by LC-MS/MS analysis
# Assay type: ADME, organism-based
# EXPERIMENTAL_CONDITIONS: in vivo
ASSAY_READOUT: AUC

>  <COMPOUND>
C=C[C@@H]1C[C@]1(NC(=O)[C@@H]1C[C@@H]2CN1C(=O)[C@H](C1CCCC1)NC(=O)O[C@@H]1CCC[C@H]1CCCCCn1c(nc3cc(OC)ccc3c1=O)O2)C(=O)NS(=O)(=O)C1(C)CC1 [MK-2748]

>  <RESULT>
28.9 µM·h

$$$$
>  <COMPOUND>
COc1ccc2nc3c(nc2c1)O[C@@H]1CC2C(=O)N[C@]4(C(=O)NS(=O)(=O)C5(C)CC5)C[C@@H]4/C=C/CCCCC[C@H](NC(=O)O[C@@H]4CCC[C@H]4CCCCC3)C(=O)N2C1 (stereo partly drawn)

>  <RESULT>
20 µM·h

$$$$
>  <COMPOUND>
C=C[C@@H]1C[C@]1(NC(=O)[C@@H]1C[C@@H](Oc2cc(-c3ccccc3)nc3cc(OC)ccc23)CN1C(=O)[C@@H](CC(=O)N1CCCCC1)C(C)(C)C)C(=O)NS(=O)(=O)C1CC1 [SOVAPREVIR]

>  <RESULT>
339 µM·h

$$$$

----------
# MEASURED_ON: Non-structural protein 4b (Hepacivirus hominis, UniProt F5B4I0)
# Sequence (F5B4I0 whole entry): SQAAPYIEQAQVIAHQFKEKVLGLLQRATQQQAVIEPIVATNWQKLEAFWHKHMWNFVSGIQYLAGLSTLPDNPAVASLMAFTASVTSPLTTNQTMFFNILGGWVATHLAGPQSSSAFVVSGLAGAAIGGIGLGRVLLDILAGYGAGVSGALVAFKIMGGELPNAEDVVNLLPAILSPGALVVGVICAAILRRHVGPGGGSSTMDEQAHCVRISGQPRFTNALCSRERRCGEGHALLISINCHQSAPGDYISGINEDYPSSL
# TEST: Binding affinity to Hepatitis C virus genotype 3a NS4B assessed as inhibition constant
pKi: −log10 of the molar value.
pKi listing for selected compounds.

>  <COMPOUND>
CC(C)(C)[C@@H]1NC(=O)O[C@@H]2CCC[C@H]2OC/C=C/C(F)(F)c2nc3ccccc3nc2O[C@@H]2C[C@@H](C(=O)N[C@]3(C(=O)NS(=O)(=O)C4(C)CC4)C[C@H]3C(F)F)N(C2)C1=O

>  <MEASURED_ON>
Non-structural protein 4b (Hepacivirus hominis, UniProt F5B4I0)

>  <pKi>
9.02

$$$$
>  <COMPOUND>
C=C[C@@H]1C[C@]1(NC(=O)[C@@H]1C[C@@H]2CN1C(=O)[C@H](C1CCCC1)NC(=O)O[C@@H]1CCC[C@H]1CCCCCn1c(nc3cc(OC)ccc3c1=O)O2)C(=O)NS(=O)(=O)C1(C)CC1 [MK-2748]

>  <MEASURED_ON>
Non-structural protein 4b (Hepacivirus hominis, UniProt F5B4I0)

>  <pKi>
8.92

$$$$
>  <COMPOUND>
CC(C)(C)NC(=O)N[C@H](C(=O)N1C[C@H]2[C@@H]([C@H]1C(=O)NC(CC1CCC1)C(=O)C(N)=O)C2(C)C)C(C)(C)C (stereo not given in full) [BOCEPREVIR]

>  <MEASURED_ON>
Non-structural protein 4b (Hepacivirus hominis, UniProt F5B4I0)

>  <pKi>
8.22

$$$$
>  <COMPOUND>
C=C[C@@H]1C[C@]1(NC(=O)[C@@H]1C[C@@H]2CN1C(=O)[C@H](C(C)(C)C)NC(=O)O[C@@H]1C[C@H]1CCCCCc1nc3ccc(OC)cc3cc1O2)C(=O)NS(=O)(=O)C1CC1

>  <MEASURED_ON>
Non-structural protein 4b (Hepacivirus hominis, UniProt F5B4I0)

>  <pKi>
9.51

$$$$
>  <COMPOUND>
COc1ccc2nc3c(nc2c1)O[C@@H]1CC2C(=O)N[C@]4(C(=O)NS(=O)(=O)C5(C)CC5)C[C@@H]4/C=C/CCCCC[C@H](NC(=O)O[C@@H]4CCC[C@H]4CCCCC3)C(=O)N2C1 (stereo not given in full)

>  <MEASURED_ON>
Non-structural protein 4b (Hepacivirus hominis, UniProt F5B4I0)

>  <pKi>
9.59

$$$$

----------
# TEST: Half life in Beagle dog at 5 mg/kg, po by LC-MS/MS analysis
# Assay type: ADME, organism-based, Canis lupus familiaris
# EXPERIMENTAL_CONDITIONS: in vivo
half-life listing for selected compounds.

>  <COMPOUND>
CC(C)(C)[C@@H]1NC(=O)O[C@@H]2CCC[C@H]2OC/C=C/C(F)(F)c2nc3ccccc3nc2O[C@@H]2C[C@@H](C(=O)N[C@]3(C(=O)NS(=O)(=O)C4(C)CC4)C[C@H]3C(F)F)N(C2)C1=O

>  <half-life>
0.6 h

$$$$
>  <COMPOUND>
COc1ccc2nc3c(nc2c1)O[C@@H]1CC2C(=O)N[C@]4(C(=O)NS(=O)(=O)C5(C)CC5)C[C@@H]4/C=C/CCCCC[C@H](NC(=O)O[C@@H]4CCC[C@H]4CCCCC3)C(=O)N2C1 (stereo not given in full)

>  <half-life>
2.3 h

$$$$
>  <COMPOUND>
C=C[C@@H]1C[C@]1(NC(=O)[C@@H]1C[C@@H](Oc2cc(-c3ccccc3)nc3cc(OC)ccc23)CN1C(=O)[C@@H](CC(=O)N1CCCCC1)C(C)(C)C)C(=O)NS(=O)(=O)C1CC1

>  <half-life>
115 h

$$$$
>  <COMPOUND>
Cc1cnc(C(=O)N[C@H]2CCCCC/C=C\[C@@H]3C[C@@]3(C(=O)NS(=O)(=O)C3CC3)NC(=O)[C@@H]3C[C@@H](Oc4nc5ccccc5c5ccccc45)CN3C2=O)cn1

>  <half-life>
1.2 h

$$$$
>  <COMPOUND>
C=C[C@@H]1C[C@]1(NC(=O)[C@@H]1C[C@@H]2CN1C(=O)[C@H](C1CCCC1)NC(=O)O[C@@H]1CCC[C@H]1CCCCCn1c(nc3cc(OC)ccc3c1=O)O2)C(=O)NS(=O)(=O)C1(C)CC1

>  <half-life>
2.5 h

$$$$
